Kindly state IC50 for each of the entries shown.
Molecular target: SARM1 (50-724) (Homo sapiens (Human), UniProt Q6SZW1)
Sequence (Q6SZW1 50-724): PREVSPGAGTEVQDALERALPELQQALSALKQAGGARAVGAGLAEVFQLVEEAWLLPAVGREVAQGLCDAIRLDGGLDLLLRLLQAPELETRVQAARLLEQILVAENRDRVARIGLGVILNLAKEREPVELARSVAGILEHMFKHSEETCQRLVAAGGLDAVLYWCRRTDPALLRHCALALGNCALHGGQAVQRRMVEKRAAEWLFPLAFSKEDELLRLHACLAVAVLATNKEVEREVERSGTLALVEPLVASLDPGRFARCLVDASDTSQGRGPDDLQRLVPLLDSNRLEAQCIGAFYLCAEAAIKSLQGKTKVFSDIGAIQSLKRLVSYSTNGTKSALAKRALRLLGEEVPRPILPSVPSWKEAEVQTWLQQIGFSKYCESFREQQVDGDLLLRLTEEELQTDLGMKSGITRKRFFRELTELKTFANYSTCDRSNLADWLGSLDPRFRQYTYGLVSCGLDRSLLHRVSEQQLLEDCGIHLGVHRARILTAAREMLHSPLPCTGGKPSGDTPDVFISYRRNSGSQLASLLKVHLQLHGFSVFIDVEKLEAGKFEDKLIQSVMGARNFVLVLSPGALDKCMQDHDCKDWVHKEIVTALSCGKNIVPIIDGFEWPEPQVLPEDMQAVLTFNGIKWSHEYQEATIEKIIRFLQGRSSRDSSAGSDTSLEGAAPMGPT

Known IC50 results, listed for orientation:
>>> result("Cc1ccncc1-c1cc(O)cc(C#N)c1 [Compound 5]")
"< 5 µM"
>>> result("Cc1ccncc1-c1ccc2c(c1)CNC(=N)N2 [Compound 79]")
"< 5 µM"
>>> result("O=c1[nH]c2ccc(-c3cncc(Nc4ccncc4)c3)cc2o1 [Compound 111]")
"< 5 µM"

Quick one: give me IC50 for each item below, same order please.
1. O=c1[nH]c2ccc(-c3cncc(Nc4cccc(Cl)c4)c3)cc2o1 [Compound 96]
2. Cc1ccncc1-c1ccc2[nH]c(C#N)cc2c1 [Compound 88]
3. Cc1ccncc1-c1ccc(O)c(Br)c1 [Compound 15, 2-bromo-4-(4-methylpyridin-3-yl)phenol]
4. CNc1cncc(-c2ccc3[nH]c(=O)oc3c2)c1 [Compound 110]

< 5 µM
< 5 µM
< 5 µM
< 5 µM

Field: IC50. Fill in for each record below.
1. Cc1ccncc1-c1ccc2[nH]ncc2c1F [Compound 74]
2. O=c1[nH]c2ccc(-c3cncc(Nc4ccccc4F)c3)cc2o1 [Compound 102]
3. Cc1ccncc1-c1ccc2c(c1)C(=O)NCC2 [Compound 18]
4. O=c1[nH]c2ccc(-c3cncc(Oc4ccccc4)c3)cc2o1 [Compound 119]

15 to 30 µM
< 5 µM
15 to 30 µM
< 5 µM

State the recorded IC50 for every item in the following list.
1. Cc1ccncc1-c1ccc2c(c1)NC(=O)CO2 [Compound 51]
2. Cc1ccncc1-c1ccc2[nH]nc(F)c2c1 [Compound 68]

["< 5 µM", "< 5 µM"]

All figures here come from patent US20250236613A1.
